Recorded yeast fitness for the following variants
B1: tRNA (parent)
chain: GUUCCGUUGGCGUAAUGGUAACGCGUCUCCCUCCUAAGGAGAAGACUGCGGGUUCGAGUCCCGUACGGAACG

Variants of: B1
Assay: yeast fitness relative to wild type (ratio to wild type); higher = fitter; tRNA-Arg(CCU), competitive growth, 37 C, YPD
This sample holds only a part of the variants without activity.

mutation.name	modifier	yeast fitness
A42U G44C A65C	≤	0.5
G6A C34G U59A	=	0.547
C4A C5G C30A	≤	0.5
A36C G38A G58A	=	0.562
G6A G17A C27U C33A A37C	≤	0.5
C5U G25A U32G	≤	0.5
C27U A36C A69U	=	0.646
U7A C22G C30U A37G	≤	0.5
U7C A20U A36G C62U	≤	0.5
G6A C11G A45U A57G A70G	≤	0.5
G10C C31A A37U G63A A65G	≤	0.5
C31U C34G C49U G52A	=	0.725
G39A A57C	=	0.663
G25C U54G	=	0.581
C29G C33G G41C C66U	=	0.607
C29U G41C G56A C60G C62G	≤	0.5
U3C G48C C66U	=	0.761
U3C C5G U28G C31U G51A U54A U59A	≤	0.5
C34G C49G C61U U64A	≤	0.5
G9A U28C G44A G51C G58C	=	0.51
A14U C29U	=	0.64
U3A G44A C55U	≤	0.5
